- test-target: T1, human C type Lectin Like molecule 1 (CLL-1) on cells (human, UniProt Q5QGZ9 1-265)
- T1 construct: also called hCLL-1; CLEC12A
- T1 sequence: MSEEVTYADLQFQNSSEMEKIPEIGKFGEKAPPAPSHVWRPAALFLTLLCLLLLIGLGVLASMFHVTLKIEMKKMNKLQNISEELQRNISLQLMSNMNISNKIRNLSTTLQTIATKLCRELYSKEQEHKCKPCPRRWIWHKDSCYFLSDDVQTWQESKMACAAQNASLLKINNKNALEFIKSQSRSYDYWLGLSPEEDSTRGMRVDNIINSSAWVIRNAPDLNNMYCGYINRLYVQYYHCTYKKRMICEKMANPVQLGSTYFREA
- test-name: FACS, OCI AML-5 AML cell line
observed-property: % of live cells with antibody binding (%)
Express the result in % but write the number alone.

Query block: Given CLL-1 antibody clone G4 (antibody, IgG1, V domains shown, also called 31.G4; 31G4) VH: EVQLQQSGPELVKPGASMKISCKASGYSFTGYTMNWVKQSHEKNLEWIGPINPYNDGTIYNPNFKGKATLTVDKASSTAYMELLSLTSDDPAVYYCARTDDYDDYTMDYWGQGTSVTVSS VL: EIQMTQTPSSLSASLGDRVTISCRASHDISNYLNWYQQKPDGTLKLLIYYTSRLHSGVPSRFSGSGSGTDYSLTISNLEQEDIATYFCQQGKTLLWTFGGGTKLEIK , state its recorded % of live cells with antibody binding.
Result block: 83.2

Query block: Quick one: % of live cells with antibody binding for CLL-1 antibody clone M2 (antibody, IgG1, V domains shown) VH: EVQLRQSGPELVKPGASVKMSCKASGYTFTSYFMHWVKQKPGQGLEWIGFINPYNDGTKYNEKFKGKATLTSDKSSSTAYMELNSLTSEDSAVYYCTRDDGYYDYAMDYWGQGTSVTVSS VL: DIQMTQSPSSLSASLGERVSLTCRASQEISVYLSWLQQKPDGTIKRLIYAASTLDSGVPERFSGSRSGSDYSLTISSLESEDFADYYCLQYASYPYTFGGGTKLEIKR ?
Result block: 96.3

Query block: Would you mind telling me what % of live cells with antibody binding value was observed for CLL-1 antibody clone M22 (antibody, IgG2a, V domains shown) VH: QVQLQQPGAELVKPGASVKLSCKASGYTFTRYWMHWVKQRPGQGLEWIGNIDPSDTETHYNQQFKDKATLTVDKSSSTAYMQLSSLTSEDSAVYYCAIYYGNPSYYAMDYWGQGTSVTVSS VL: DIVMTQSPSSLTVTAGEKVTMSCKSSQNLLNSGNQKKYLNWYQQKPGQPPKLLIYWASTRESGVPDRFTGSGSGTDFTLTISSVQAEDLAVYFCQNDYSYPFTFGAGTKLELK ?
Result block: 57.6
